Target: EP2 receptor (Homo sapiens, UniProt P43116)
Construct: expressed in transfected cells; host or cells: CHO-K1 cells (ATCC), transient transfection with FuGENE 6
Sequence (P43116 whole entry): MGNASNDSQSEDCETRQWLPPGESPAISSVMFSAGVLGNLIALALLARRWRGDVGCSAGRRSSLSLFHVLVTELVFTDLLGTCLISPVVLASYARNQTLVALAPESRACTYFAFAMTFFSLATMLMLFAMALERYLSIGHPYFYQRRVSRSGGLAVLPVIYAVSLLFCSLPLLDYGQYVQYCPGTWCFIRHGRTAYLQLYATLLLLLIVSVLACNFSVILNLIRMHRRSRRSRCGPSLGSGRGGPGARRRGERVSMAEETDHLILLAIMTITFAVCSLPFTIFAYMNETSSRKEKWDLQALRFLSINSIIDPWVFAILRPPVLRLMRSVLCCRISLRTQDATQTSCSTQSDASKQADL
Assay: EP2 Potency Assay (cAMP TR-FRET, CHO-K1 cells transfected with EP2 receptor, PGE2 at EC80)
Format: cell-based
Conditions: CHO-K1 cells expressing EP2, prostaglandin E2 at EC80, read-out: EP2 Potency (IC50 category)
# Lookup of reported IC50 keyed by entry

Example results:
[
  {
    "smiles_text": "COc1ncc(CN2CCOc3c(Cl)cc(-n4ccc5cc(F)cnc54)cc3C2)cn1",
    "IC50": "1 to 5 µM"
  },
  {
    "smiles_text": "Fc1ccc2c(ccn2-c2cc(Cl)c3c(c2)CN(Cc2cc[nH]c2)CCO3)c1",
    "IC50": "> 5 µM"
  },
  {
    "smiles_text": "COC(=O)c1ncc(CN2CCOc3c(Cl)cc(-n4ccc5cc(F)ccc54)cc3C2)cn1",
    "IC50": "< 0.1 µM"
  }
]

Request: # query: IC50 of entry Fc1ccc2c(ccn2-c2cc(Cl)c3c(c2)CN(Cc2ccc[nH]2)CCO3)c1
Result: > 5 µM

Request: Look up IC50 for this compound: O=c1ncc(CN2CCOc3c(Cl)cc(-n4ccc5nccnc54)cc3C2)c[nH]1
Result: > 5 µM

Request: Record request: IC50 value, item Fc1ccc2c(ccn2-c2cc(Cl)c3c(c2)CN(Cc2cnsn2)CCO3)c1
Result: 1 to 5 µM

Request: Field request: IC50 | item: COC(=O)[C@H]1CC[C@@H](CN2CCOc3c(Cl)cc(-n4ccc5cc(F)ccc54)cc3C2)CC1
Result: > 5 µM

Source listed as patent US12624024B2.
